Form field: IC50 (one value per entry).
Assay: cells
Conditions: Homo sapiens, A2780AD, 48 h

{"COMPOUND": "COc1cc2cc(c1Cl)N(C)C(=O)C[C@H](OC(=O)[C@H](C)N(C)C(C)=O)[C@]1(C)O[C@H]1[C@H](C)[C@@H]1C[C@@](O)(NC(=O)O1)[C@H](OC)/C=C/C=C(\\C)C2 [MAYTANSINE]", "READOUT_UNIT": "nM", "IC50": 19}
{"COMPOUND": "CCC[C@@H](NC(=O)[C@]1(C)CSC(/C(C)=N/O)=N1)c1cc(OC)cc(=O)o1", "READOUT_UNIT": "nM", "IC50": 54}
{"COMPOUND": "CC[C@]1(O)C[C@@H]2CN(CCc3c([nH]c4ccccc34)[C@@](C(=O)OC)(c3cc4c(cc3OC)N(C)[C@H]3[C@@](O)(C(=O)OC)[C@H](OC(C)=O)[C@]5(CC)C=CCN6CC[C@]43[C@@H]65)C2)C1 [VINBLASTINE]", "READOUT_UNIT": "nM", "IC50": 70}
{"COMPOUND": "COc1cc([C@@H]2c3cc4c(cc3[C@H](O)[C@H]3COC(=O)[C@H]23)OCO4)cc(OC)c1OC [PODOFILOX]", "READOUT_UNIT": "nM", "IC50": 20}
{"COMPOUND": "CC(=O)O[C@H]1C(=O)[C@@]2(C)[C@H]([C@H](OC(=O)c3ccccc3)[C@]3(O)C[C@H](OC(=O)[C@H](O)[C@@H](NC(=O)c4ccccc4)c4ccccc4)C(C)=C1C3(C)C)[C@]1(OC(C)=O)CO[C@@H]1C[C@@H]2O [PACLITAXEL]", "READOUT_UNIT": "nM", "IC50": 392}
{"COMPOUND": "CCC[C@@H](NC(=O)[C@]1(C)CSC(/C(C)=N/O)=N1)c1cc(OCC2CC2)cc(=O)o1", "READOUT_UNIT": "nM", "IC50": 3.2}
